// provenance: the Human Domainome abundance scans (Beltran et al. 2025)

B1: Myocardin, residues 363 to 406; numbered along this chain, Q8IZQ8 (parent)
chain: KPGPLPPNLDDLKVSELRQQLRIRGLPVSGTKTALMDRLRPFQD

# Variants of: B1
# assay-details: abundance fitness (aPCA) (normalised: wild type 0, dead -1); higher = more abundant; growth selection in yeast, the domain comes from the species named
# condition-label: Homo sapiens
Quick rule: abundance fitness of at least 0.004 means MET, below that means NOT MET.

changes: K1M
category: NOT MET

changes: D44V
category: MET

changes: K32T
category: NOT MET

changes: G3R
category: MET

changes: L26P
category: NOT MET

changes: D37S
category: NOT MET

changes: P7E
category: MET
